Data provenance: PubChem BioAssay (NCI)

tested on: SNB-75 CNS; test: NCI tumour cell line growth inhibition, 48 h
Recorded TGI by entry

Compound: CCC(CCCC[C@H]1CC[C@@H]2CC(=O)C[C@H]12)OC (stereo not given in full)
Readout Unit: µM
Measurement Qualifier: >
TGI: 100
--
Compound: COC(=O)C(=O)C(C(=O)C(=O)Nc1cc(C)ccc1C)c1nc2ccccc2[nH]c1=O (stereo not given)
Readout Unit: µM
Measurement Qualifier: >
TGI: 100
--
Compound: CC(C)(C)n1cc(-c2ccnc(NCCCNS(=O)(=O)c3cccc4ccccc34)c2)c(-c2cccc(O)c2)n1
Readout Unit: µM
Measurement Qualifier: =
TGI: 5.48
--
Compound: C(=C\c1ccc2ccccc2c1Nc1ccccc1)/c1ccccc1
Readout Unit: µM
Measurement Qualifier: =
TGI: 39.9
--
Compound: CC(=O)CC(O)(C(F)(F)Cl)C(F)(Cl)Cl (stereo not given)
Readout Unit: µM
Measurement Qualifier: >
TGI: 10
